- procedureText: NCI Yeast Anticancer Drug Screen. Data for the mlh1 rad18 strain (AID 175)
- experimentalConditions: S. cerevisiae mlh1 rad18 strain growth inhibition; at 50.0 µM (retest, dose inferred, filed as 5.0); active compounds read high
About 79,000 compounds went through this panel and 15% of them were active in at least one assay; those are over-represented in the sample as a whole.
A collection of compounds and their measured growth inhibition
Could you give me the number in %? Just the number is fine.

Consider the following illustrative entries.
compound	unitLabel	growth inhibition
CSc1nc(=S)c2[nH]c(C)nc2[nH]1	%	3
C=C(Cl)C(=NC(C)(C)C)Nc1ccccc1C	%	80
CCOC(=O)[C@]12CCC[C@@]1(O)NC(=O)c1cnccc12	%	97
CC(=O)ON=C1C=CC(=C(C#N)c2ccccc2)C=C1	%	99
C/C(=N/O)c1cc([N+](=O)[O-])c(O)cc1O	%	80

q: Identify growth inhibition associated with the compound N#C/C=C(\c1ccccc1)c1c[nH]c2ccccc12
a: 98
